System: HL-60(TB) leukemia
EXPERIMENT: NCI-60 one-dose screen, 48 h (100 = growth as untreated, 0 = no growth, -100 = all killed)
MEASUREMENT PARAMETERS: 10 µM unless noted
This is part of a sample that, as a whole, favours compounds with a hit. Of some 83,000 tested, about 20% had one in any assay. The source made the active and inactive calls. The calls were made as follows: active = growth percent below 10; inactive = the rest.
Listing of entries alongside the reported growth.

{"COMPOUND": "COc1cc2c(cc1-c1c(C)noc1C)ncc1nc(-c3ccccn3)n([C@H](C)COC(F)F)c12", "TARGET": "HL-60(TB) leukemia", "growth": "33.6% (inactive)"}
{"COMPOUND": "Nc1c(-c2nc3ccc(Br)cc3c(=O)[nH]2)nnn1-c1ccccc1", "TARGET": "HL-60(TB) leukemia", "growth": "103% (inactive)"}
{"COMPOUND": "Cc1ccc(SCN2CCN(c3cccc(Cl)c3)CC2)cc1", "TARGET": "HL-60(TB) leukemia", "growth": "111% (inactive)"}
{"COMPOUND": "O=C1Nc2ccc(Cl)cc2/C1=C\\c1c(-c2ccc(F)cc2)nc2ccccn12", "TARGET": "HL-60(TB) leukemia", "growth": "-37.7% (active)"}

====

Tested on: HCT-116 colon
EXPERIMENT: NCI-60 one-dose screen, 48 h
MEASUREMENT PARAMETERS: 10 µM unless noted
About 83,000 compounds went through this panel and 20% of them were active in at least one assay; those are over-represented in the sample as a whole. Active and inactive are the calls of the source. Rule for the calls: active = growth percent below 10; inactive = the rest.
Labels: active, inactive

{"COMPOUND": "FC(F)=C(F)c1ccccc1", "ASSIGNED CATEGORY": "inactive"}
{"COMPOUND": "CC12CCC(=O)C=C1CCC1C2CCC2(C)C(C(=O)COC(=O)Cc3ccc(N(CCCl)CCCl)cc3)CCC12 (centres undefined)", "ASSIGNED CATEGORY": "inactive"}
{"COMPOUND": "COc1ccc2c(c1)NC1=C(C(=O)OC1)C2c1cc(OC)c(OC)c(OC)c1 (centres undefined)", "ASSIGNED CATEGORY": "active"}
{"COMPOUND": "C#CC1(O)CCC2(C)C(CCC3C4CCC(=O)C4(C)CCC32)C1 (centres undefined)", "ASSIGNED CATEGORY": "inactive"}
{"COMPOUND": "Cc1cccc(N=C2c3cc([N+](=O)[O-])ccc3-c3c2cc([N+](=O)[O-])cc3[N+](=O)[O-])c1", "ASSIGNED CATEGORY": "active"}
{"COMPOUND": "CCCCn1cc(C(=O)/C(C#N)=C/c2cc3ccccc3nc2Cl)c2cc(OC)ccc21", "ASSIGNED CATEGORY": "inactive"}
{"COMPOUND": "O=CN1N=C(c2ccccc2)CC1c1sc(N(CCCl)CCCl)nc1Cl (centres undefined)", "ASSIGNED CATEGORY": "inactive"}
{"COMPOUND": "O=C(CI)Nc1ccc(Br)cc1", "ASSIGNED CATEGORY": "active"}
{"COMPOUND": "Cc1ccccc1O", "ASSIGNED CATEGORY": "inactive"}
{"COMPOUND": "COc1cc(C2(C#N)CCN(C)CC2)cc(OC)c1OC", "ASSIGNED CATEGORY": "inactive"}
{"COMPOUND": "Nc1cccc(CC(=O)Nc2ccc(S(=O)(=O)F)cc2)c1", "ASSIGNED CATEGORY": "inactive"}
{"COMPOUND": "O=C(O)CNC(=O)c1ccccc1", "ASSIGNED CATEGORY": "inactive"}
{"COMPOUND": "C[C@@H]1O[C@@H](O[C@H]2CC[C@@]3(C)[C@H](CCC4[C@@H]3C(O)C[C@]3(C)[C@@H](c5ccc(=O)oc5)CC[C@]43O)C2)[C@H](O)[C@H](O)[C@H]1O (some centres undefined)", "ASSIGNED CATEGORY": "active"}
{"COMPOUND": "O=C1NC(=O)C(=Cc2cn(Cc3ccccc3)c3ccccc23)C(=O)N1", "ASSIGNED CATEGORY": "inactive"}

Data origin, for the record: PubChem BioAssay (NCI)
